assay_text: Toxicokinetics of cereulide in rabbits after a single intravenous injection (plasma, UPLC-MS/MS)
Format: in vivo, New Zealand White rabbits
applied_conditions: both sexes, New Zealand White, rabbit, plasma, iv, 5 ug, single i.v. 5 μg cereulide/rabbit, plasma, UPLC-MS/MS, non-compartmental, n = 8, mean ± SD, read-out: Tmax, time to peak concentration
measured_attribute: Tmax (h)

1) CC(C)C[C@H]1OC(=O)[C@H](C(C)C)NC(=O)[C@H](C(C)C)OC(=O)[C@@H](C)NC(=O)[C@@H](CC(C)C)OC(=O)[C@H](C(C)C)NC(=O)[C@H](C(C)C)OC(=O)[C@@H](C)NC(=O)[C@@H](CC(C)C)OC(=O)[C@H](C(C)C)NC(=O)[C@H](C(C)C)OC(=O)[C@@H](C)NC1=O [cereulide]; 2.6
